# Tested on: Corynebacterium minutissimum
# assay: MIC, C. minutissimum (Table 1)
# Assay type: cell-based
# run conditions: C. minutissimum strain 23348, gram+, read-out: Anti-Microbial Activity MIC, C. m.
endpoint: MIC

Query: Would you kindly share the measured MIC for C=CCc1cc(C(C)(C)C)ccc1O [Example 5, Ortho Allyl Para tert-Butyl Phenol] ?
Response: 31.2 µg/mL

Query: Would you kindly share the measured MIC for CCCc1c(C)ccc(C(C)C)c1O [Example 3a, Ortho Propyl Thymol] ?
Response: 62.5 µg/mL

Query: Would you kindly share the measured MIC for C=CCc1cc(C(C)C)c(O)cc1C [Example 1b, Para Allyl Thymol] ?
Response: 62.5 µg/mL

Query: Would you kindly share the measured MIC for CCCc1cc(C(C)(C)C)ccc1O [Example 6, Ortho Propyl Para tert-Butyl Phenol] ?
Response: 15.6 µg/mL

Query: Would you kindly share the measured MIC for Cc1ccc(C(C)C)c(O)c1 [Thymol, thymol, reference compound] ?
Response: 125 µg/mL
